Target: xanthine oxidase (Homo sapiens (Human), UniProt P47989)
Sequence (P47989 whole entry, species assumed): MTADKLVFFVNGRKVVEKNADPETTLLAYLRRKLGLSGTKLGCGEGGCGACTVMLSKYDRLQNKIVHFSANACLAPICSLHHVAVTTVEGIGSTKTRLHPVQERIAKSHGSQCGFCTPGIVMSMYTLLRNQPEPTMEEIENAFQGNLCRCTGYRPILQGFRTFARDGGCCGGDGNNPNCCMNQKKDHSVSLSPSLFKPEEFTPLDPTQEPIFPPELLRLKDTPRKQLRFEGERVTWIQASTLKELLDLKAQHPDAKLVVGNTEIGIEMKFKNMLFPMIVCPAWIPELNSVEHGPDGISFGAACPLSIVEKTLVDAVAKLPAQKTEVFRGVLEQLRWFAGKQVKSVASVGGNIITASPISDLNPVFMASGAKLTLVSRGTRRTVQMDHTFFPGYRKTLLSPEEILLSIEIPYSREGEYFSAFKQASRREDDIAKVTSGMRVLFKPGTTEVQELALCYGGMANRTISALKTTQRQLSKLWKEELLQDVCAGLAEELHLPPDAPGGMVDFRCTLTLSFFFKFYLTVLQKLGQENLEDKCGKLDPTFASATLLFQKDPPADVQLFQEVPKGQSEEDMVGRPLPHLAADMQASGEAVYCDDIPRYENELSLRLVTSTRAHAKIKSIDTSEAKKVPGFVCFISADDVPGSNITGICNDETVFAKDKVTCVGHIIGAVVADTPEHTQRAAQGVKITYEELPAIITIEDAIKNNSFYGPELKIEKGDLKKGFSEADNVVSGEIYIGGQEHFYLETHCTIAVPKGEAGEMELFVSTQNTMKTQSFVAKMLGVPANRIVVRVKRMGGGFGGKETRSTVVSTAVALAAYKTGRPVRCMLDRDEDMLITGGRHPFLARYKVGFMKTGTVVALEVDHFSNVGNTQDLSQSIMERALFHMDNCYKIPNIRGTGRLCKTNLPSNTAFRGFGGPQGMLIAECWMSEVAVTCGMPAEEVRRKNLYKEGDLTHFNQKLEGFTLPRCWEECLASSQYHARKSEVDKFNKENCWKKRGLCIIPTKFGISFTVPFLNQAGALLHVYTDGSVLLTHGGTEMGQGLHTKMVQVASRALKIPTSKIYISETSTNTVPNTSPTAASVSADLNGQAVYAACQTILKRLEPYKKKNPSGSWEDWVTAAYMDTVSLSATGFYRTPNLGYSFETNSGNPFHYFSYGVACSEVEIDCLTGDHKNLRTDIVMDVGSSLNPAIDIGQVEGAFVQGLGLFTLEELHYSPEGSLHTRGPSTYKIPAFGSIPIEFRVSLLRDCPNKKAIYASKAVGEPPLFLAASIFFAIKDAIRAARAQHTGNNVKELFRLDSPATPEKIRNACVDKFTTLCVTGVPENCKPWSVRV
Test: Fluorescence-based xanthine oxidase activity assay
Type: biochemical
Details: fluorescence-based assay, triplicate, 10 concentrations
reportedProperty: IC50 (µM)
Express it in µM; write the number only.

Below are worked cases with known answers.
compound	reportedProperty	measurement
O=C(Nc1ccc(-c2c[nH]nn2)c(C(F)(F)F)c1)c1c(O)[nH]c(=O)[nH]c1=O [Formula (Ig)]	IC50	2.2
O=C(Nc1ccc(-c2c[nH]nn2)cc1C(F)(F)F)c1c(O)[nH]c(=O)[nH]c1=O [Formula (Ih)]	IC50	1.2
O=C(Nc1ccc(-c2nc(C(F)(F)F)n[nH]2)cc1)c1c(O)[nH]c(=O)[nH]c1=O [Formula (Ie)]	IC50	14.5
O=C(Nc1ccc(-c2cn[nH]c2)cc1)c1c(O)[nH]c(=O)[nH]c1=O [Formula (If)]	IC50	70.1
O=C(Nc1cccc(-c2cn[nH]n2)c1)c1c(O)[nH]c(=O)[nH]c1=O [Formula (Ia)]	IC50	6.5

// recorded IC50 for O=C(Nc1ccc(-c2[nH]ncc2C(F)(F)F)cc1)c1c(O)[nH]c(=O)[nH]c1=O [Formula (Im)] : 25.2

// recorded IC50 for O=C(Nc1ccc(-c2cc(C(F)(F)F)n[nH]2)cc1)c1c(O)[nH]c(=O)[nH]c1=O [Formula (Il)] : 67.9

// recorded IC50 for O=C(Nc1ccc(-n2cc(C(F)(F)F)cn2)cc1)c1c(O)[nH]c(=O)[nH]c1=O [Formula (Ik)] : 68

// recorded IC50 for O=C(Nc1ccc(-c2nn[nH]c2-c2ccccc2)cc1)c1c(O)[nH]c(=O)[nH]c1=O [Formula (Ic)] : 12.2

// recorded IC50 for O=C(Nc1ccc(-c2cc(O)n[nH]2)cc1)c1c(O)[nH]c(=O)[nH]c1=O [Formula (Ii)] : 1.3

// recorded IC50 for O=C(Nc1ccc(-c2cn[nH]c2C(F)(F)F)cc1)c1c(O)[nH]c(=O)[nH]c1=O [Formula (Ij)] : 16.3
